The reported numbers originate from ChEMBL document CHEMBL3763017.

assayComment: Antiplatelet activity in human platelet rich plasma assessed as inhibition of collagen-induced platelet aggregation at 30 uM preincubated for 5 mins followed by collagen stimulation by turbidimetry
Assay type: functional
parameter: inhibition at 30 µM (%)
All answers are understood in %, so give the number only.

substanceSmiles | inhibition at 30 µM / %
O=C([C@@H]1CCC(=O)N1S(=O)(=O)c1ccccc1)N1CC2CC(CN(Cc3ccccc3)C2)C1 | 29
Cc1ccc(CN2C(=O)CC[C@H]2C(=O)N2CC3CC(CN(Cc4ccccc4)C3)C2)cc1 | 7

// recorded inhibition at 30 µM for `Cc1ccc(S(=O)(=O)N2CC3CC(CN(C(=O)[C@@H]4CCC(=O)N4Cc4ccccc4Br)C3)C2)cc1` : 16.8

The measured inhibition at 30 µM associated with `CC(C)(C)OC(=O)N1CC2CC(C1)CN(C(=O)[C@@H]1CCC(=O)N1Cc1cccc3ccccc13)C2` reads 11

###

assayComment: Antiplatelet activity in human platelet rich plasma assessed as inhibition of collagen-induced platelet aggregation at 30 uM preincubated for 5 mins followed by collagen stimulation by turbidimetry
Assay type: functional
inhibition at 30 µM: recorded values
Give the quantity in %, number only.

Sample records with inhibition at 30 µM:
substanceSmiles | inhibition at 30 µM (%)
O=C([C@@H]1CCC(=O)N1Cc1c(Cl)cccc1Cl)N1CC2CC(CN(Cc3ccccc3)C2)C1 | 68
CC(C)(C)OC(=O)N1CC2CC(C1)CN(C(=O)[C@@H]1CCC(=O)N1Cc1ccccc1)C2 | 6
O=C(c1ccccc1)N1CC2CC(C1)CN(C(=O)[C@@H]1CCC(=O)N1Cc1ccccc1Br)C2 | 25.6
O=C([C@@H]1CCC(=O)N1Cc1ccccc1Br)N1CC2CC(CN(Cc3ccccc3)C2)C1 | 86
O=C([C@@H]1CCC(=O)N1Cc1ccc(Cl)cc1)N1CC2CC(CN(Cc3ccccc3)C2)C1 | 52
Cc1ccc(CN2C(=O)CC[C@H]2C(=O)N2CC3CC(C2)CN(S(=O)(=O)c2ccc(C)cc2)C3)cc1 | 37.5
COc1ccc(CN2C(=O)CC[C@H]2C(=O)N2CC3CC(CN(C(=O)OC(C)(C)C)C3)C2)cc1 | 10
O=C([C@@H]1CCC(=O)N1Cc1ccccc1)N1CC2CC(CN(Cc3ccccc3)C2)C1 | 44

inhibition at 30 µM in this record for `CC(C)(C)OC(=O)N1CC2CC(C1)CN(C(=O)[C@@H]1CCC(=O)N1Cc1ccc(C#N)cc1)C2` : 11

Value of measured inhibition at 30 µM for the entry `CC(C)(C)OC(=O)N1CC2CC(C1)CN(C(=O)[C@@H]1CCC(=O)N1Cc1c(Cl)cccc1Cl)C2` : 3

Short answer for `COc1ccc(CN2C(=O)CC[C@H]2C(=O)N2CC3CC(CN(Cc4ccccc4)C3)C2)cc1` : inhibition at 30 µM was 10

Given item `Cc1ccc(CN2C(=O)CC[C@H]2C(=O)N2CC3CC(CN(C(=O)c4ccccc4)C3)C2)cc1` , the value recorded as its inhibition at 30 µM is 20.5

Reported inhibition at 30 µM of `CC(C)(C)OC(=O)N1CC2CC(C1)CN(C(=O)[C@@H]1CCC(=O)N1Cc1ccc(Cl)cc1)C2` : 6

The reported value for `Cc1ccc(CN2C(=O)CC[C@H]2C(=O)N2CC3CC(CN(Cc4ccccc4Br)C3)C2)cc1` in terms of inhibition at 30 µM is 67

Looking up `Cc1ccc(CN2C(=O)CC[C@H]2C(=O)N2CC3CC(CN(Cc4ccc(Cl)cc4)C3)C2)cc1` , I found its inhibition at 30 µM recorded as 67

Short answer for `O=C([C@@H]1CCC(=O)N1Cc1ccc(Br)cc1)N1CC2CC(CN(Cc3ccccc3)C2)C1` : inhibition at 30 µM was 57

Recorded inhibition at 30 µM (compound `CC(C)(C)OC(=O)N1CC2CC(C1)CN(C(=O)[C@@H]1CCC(=O)N1Cc1ccccc1Br)C2` ): 2

Reported inhibition at 30 µM for `Cc1ccc(CN2C(=O)CC[C@H]2C(=O)N2CC3CC(CN(Cc4ccc(Br)cc4)C3)C2)cc1` was 61

Kindly note the recorded inhibition at 30 µM for `Cc1ccc(CN2C(=O)CC[C@H]2C(=O)N2CC3CC(CN(C(=O)OC(C)(C)C)C3)C2)cc1` , which is 25
